test: clinical; conditions: human, plasma, po, 25 mg
Measured metric: AUC(0-inf)

line_notation=N#C[C@@H]1CCCN1C(=O)CNC12CC3CC(CC(O)(C3)C1)C2 measured_metric=AUC(0-inf) value_reported="461 ng·h/mL"

---

test: clinical; details: human, plasma, po, 200 mg
Measured metric: Cmax (ng/mL)

compound="N#C[C@@H]1CCCN1C(=O)CNC12CC3CC(CC(O)(C3)C1)C2 [vildagliptin]" value_reported=1100

---

assay: clinical; conditions: human, plasma, po, 50 mg, arithmetic mean tmax of vildagliptin, single oral dose of 50 mg, healthy human subject
Measured metric: Tmax (h)

compound="N#C[C@@H]1CCCN1C(=O)CNC12CC3CC(CC(O)(C3)C1)C2 [vildagliptin]" readout_units=h value_reported=2.1

---

assay: clinical; conditions: human, plasma, po, 50 mg
Measured metric: AUC(0-t) (ng·h/mL)

line_notation=N#C[C@@H]1CCCN1C(=O)CNC12CC3CC(CC(O)(C3)C1)C2 measured_metric=AUC(0-t) readout_units=ng·h/mL value_reported=1020

---

test: clinical; conditions: human, plasma, po, 200 mg
Measured metric: AUC(0-inf) (ng·h/mL)

line_notation=N#C[C@@H]1CCCN1C(=O)CNC12CC3CC(CC(O)(C3)C1)C2 measured_metric=AUC(0-inf) value_reported=5080

---

experiment: clinical; details: human, plasma, po, 100 mg, tmax (h) median (min, max), single oral 100 mg FMI tablet, healthy volunteers
Measured metric: Tmax (h)

line_notation=N#C[C@@H]1CCCN1C(=O)CNC12CC3CC(CC(O)(C3)C1)C2 value_reported=1.75

---

experiment: clinical; conditions: human, plasma, po, 100 mg
Measured metric: AUC(0-inf) (ng·h/mL)

line_notation=N#C[C@@H]1CCCN1C(=O)CNC12CC3CC(CC(O)(C3)C1)C2 value_reported=2350

---

experiment: clinical; settings: human, plasma, po, 100 mg, arithmetic mean tmax of vildagliptin, single oral dose of 100 mg, healthy human subject
Measured metric: Tmax (h)

line_notation=N#C[C@@H]1CCCN1C(=O)CNC12CC3CC(CC(O)(C3)C1)C2 measured_metric=Tmax readout_units=h value_reported=2

---

assay: clinical; details: human, plasma, po, 50 mg
Measured metric: Cmax (ng/mL)

molecule="N#C[C@@H]1CCCN1C(=O)CNC12CC3CC(CC(O)(C3)C1)C2 [vildagliptin]" readout_units=ng/mL value_reported=245

---

experiment: clinical; conditions: human, plasma, po
Measured metric: Tmax (h)

line_notation=N#C[C@@H]1CCCN1C(=O)CNC12CC3CC(CC(O)(C3)C1)C2 value_reported=1

---

experiment: clinical; conditions: human, plasma, po, 50 mg, tmax (h) median (min, max), single oral 50 mg FMI tablet, healthy volunteers
Measured metric: Tmax (h)

line_notation=N#C[C@@H]1CCCN1C(=O)CNC12CC3CC(CC(O)(C3)C1)C2 readout_units=h value_reported=1.5

---

experiment: clinical; settings: human, plasma, po, 200 mg
Measured metric: AUC(0-t) (µg·h/mL)

line_notation=N#C[C@@H]1CCCN1C(=O)CNC12CC3CC(CC(O)(C3)C1)C2 value_reported=5.06

---

assay: clinical; conditions: human, plasma, po, 200 mg, tmax (h) median (min, max), single oral 200 mg FMI tablet, healthy volunteers
Measured metric: Tmax (h)

line_notation=N#C[C@@H]1CCCN1C(=O)CNC12CC3CC(CC(O)(C3)C1)C2 measured_metric=Tmax readout_units=h value_reported=1.25
